assay.target: Muscarinic acetylcholine receptor M2 (Homo sapiens, UniProt P08172); note: assay procedure not described here
Sequence (P08172 whole entry): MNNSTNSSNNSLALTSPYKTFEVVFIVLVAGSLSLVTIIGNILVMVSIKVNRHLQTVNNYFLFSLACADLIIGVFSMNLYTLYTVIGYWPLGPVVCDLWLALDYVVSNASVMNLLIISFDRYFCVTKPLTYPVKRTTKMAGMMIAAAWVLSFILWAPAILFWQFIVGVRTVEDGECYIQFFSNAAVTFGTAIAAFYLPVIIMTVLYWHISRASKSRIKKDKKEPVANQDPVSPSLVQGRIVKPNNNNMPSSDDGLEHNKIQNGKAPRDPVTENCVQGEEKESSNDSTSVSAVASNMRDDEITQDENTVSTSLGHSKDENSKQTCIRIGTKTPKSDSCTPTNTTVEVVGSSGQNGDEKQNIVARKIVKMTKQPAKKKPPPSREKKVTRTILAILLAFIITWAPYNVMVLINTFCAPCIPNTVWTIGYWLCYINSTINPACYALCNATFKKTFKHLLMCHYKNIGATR
Format: functional, cell-based
In this section, each of the molecules is paired with its reported AC50.
measurement.type: AC50

molecule=CNC[C@H](O)c1cccc(O)c1 value_reported="> 10 µM"
molecule="CCN(CC)C(=O)C1CN2CCc3cc(OC)c(OC)cc3C2CC1OC(C)=O (centres undefined) [BENZQUINAMIDE]" value_reported="> 30 µM"
molecule=COc1ccc(/C=C/C(=O)Nc2ccccc2C(=O)O)cc1OC value_reported="> 30 µM"
molecule="Clc1ccc(C(Cn2ccnc2)OCc2ccc(Sc3ccccc3)cc2)c(Cl)c1 (centres undefined)" value_reported="> 30 µM"
molecule=CCCN(CCC)CCc1cccc2c1CC(=O)N2 value_reported="23 µM"
molecule=CCn1cc(C(=O)O)c(=O)c2cc(F)c(N3CCN(C)CC3)cc21 value_reported="> 30 µM"
molecule="Nc1nc2c(c(=O)[nH]1)N(C=O)C(CNc1ccc(C(=O)N[C@@H](CCC(=O)O)C(=O)O)cc1)CN2 (some centres undefined)" value_reported="> 30 µM"
molecule=CCOC(=O)Nc1ccc2c(c1)N(C(=O)CCN1CCOCC1)c1ccccc1S2 value_reported="> 30 µM"
molecule=CNCCC=C1c2ccccc2CCc2ccccc21 value_reported="1.9 µM"
